Attribution: PubChem BioAssay AID1159580

# TEST_PROTOCOL: chemical genetic growth profiling, strain panel (AID 1159580);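 further: tested at 20 µM; growth read once vehicle control cultures reached saturation at 30 °C; 1 = growth at the plate median or of vehicle wells; lower values mean less growth of the strain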
# MEASUREMENT_CONTEXT: S. cerevisiae deletion strains, growth OD, locus YDR195W, strain ref2
Out of some 5,500 compounds screened, about 2,000 (36%) were called active. Roughly 18% stayed inconclusive and do not appear here. This is one part of the list.
Please provide measured normalized growth for the entries that follow.
One number for each entry.

Study these solved cases before continuing.
MOLECULE: C=C(C)C1Cc2c(ccc3c(=O)c4c(oc23)COc2cc(OC)c(OC)cc2-4)O1 (stereo not given)
normalized growth: 0.998

MOLECULE: C/C(=C\CO)CC[C@H](C)CCC[C@H](C)CCCC(C)C
normalized growth: 1.09

MOLECULE: COc1ccc([C@@H](C)C(=O)c2ccc(O)cc2O)cc1
normalized growth: 1.11

MOLECULE: CNC(=O)Oc1ccccc1OC(C)C
normalized growth: 0.915

Enquiry: Please report the recorded normalized growth for CC(C)N1C(=O)c2ccccc2NS1(=O)=O .
Return: 0.935
